# Tested on: Staphylococcus aureus H 5996/08 methicillin resistant
# Procedure Summary: microbe, parasite or virus in culture
# Format: cell-based
# Condition Notes: Staphylococcus aureus, MRSA, 24 h, read-out: MIC MRSA
Reported Property: MIC

- O=C(Nc1cnc(Cl)cn1)c1ccc(O)cc1: > 500 µM
- COc1ccc(C(=O)Nc2cnc(Cl)cn2)cc1: > 125 µM
- Cc1ccc(C(=O)Nc2cnc(Cl)cn2)cc1: > 125 µM
- O=C(Nc1cnccn1)c1cccc(Cl)c1: > 125 µM
- O=C(Nc1cnccn1)c1cccc(O)c1: > 500 µM
- CC(=O)Oc1ccc(C(=O)Nc2cnccn2)cc1: > 500 µM
